Measured EC50 of individual entries
Molecular target: recombinantly produced human-NGF (human, UniProt P01138 122-241, limits assumed)
Sequence (P01138 122-241 limits assumed): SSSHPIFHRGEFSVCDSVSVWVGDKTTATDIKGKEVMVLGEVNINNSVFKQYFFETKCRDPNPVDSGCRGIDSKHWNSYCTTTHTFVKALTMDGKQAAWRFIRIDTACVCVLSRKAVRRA
Experiment: ELISA, human NGF coated, IgG titrated
Form entry: value (ng/mL) — number only.

Observe how each entry below is paired with its result.
binder	EC50 (ng/mL)
Ab24 (antibody, human IgG1, V domains shown) VH: EVQLVQSGAEVKKPGATVKISCKVSGYSFITYWISWVQQAPGKGLEWMGAIDPSDSDARYSPSFQGRVTITADKSTDTAYMELSSLRSEDTAVYYCAKSDPGYSGYSLLYGFDSWGQGTLVTVSS VL: DVVMTQSPLSLPVTLGQPASISCRSSQSLVQRNGNTYLSWYQQRPGQSPRLLIYQVSNRYSGVPDRFSGSGSGTDFTLKISRVEAEDVGVYYCGQGAHLPLTFGQGTKVEIK	0.0399
Ab44 (antibody, human IgG1, V domains shown) VH: EVQLVQSGAEVKKPGESLKISCKGSGYSFITYWISWVRQMPGKGLEWMGAIDPSDSDARYSPSFQGQVTISADKSISTAYLQWSSLKASDTAMYYCAKSDPGYSGYSLLYGFDSWGQGTLVTVSS VL: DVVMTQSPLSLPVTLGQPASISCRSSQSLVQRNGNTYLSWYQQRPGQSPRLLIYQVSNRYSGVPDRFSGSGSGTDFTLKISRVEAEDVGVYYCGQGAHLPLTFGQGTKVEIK	0.0129

Now look at this entry.
Record Ab60 (antibody, human IgG1, V domains shown) VH: EVQLVQSGAEVKKPGESLKISCKISGYSFITYWISWVRQMPGKGLEWMGAIDPSDSDARYSPSFQGQVTISADKSISTAYLQWSSLKASDTAMYYCAKSDPGYSGYSLLYGFDSWGQGTLVTVSS VL: DIVMTQSPLSLPVTLGQPASISCRSSQSLVQRNGNTYLSWFQQRPGQPPRLLIYQVSNRYSGVPDRFSGSGSGTDFTLKISRVEAEDVGVYYCGQGAHLPLTFGQGTKVEIK . Reported EC50: 0.00896
